These molecules were tested on MRSA ATCC BAA 39; MIC is the recorded read-out.
The reply should contain only the number, in µg/mL.

// solved cases for MIC follow
molecular string	quantitative readout
C[Si]1(C)CCN(c2c(F)cc(N3C[C@H](CN)OC3=O)cc2F)CC1	16
CCC(=O)NC[C@H]1CN(c2cc(F)c(N3CC[Si](C)(C)CC3)c(F)c2)C(=O)O1	32
C[Si]1(c2ccccc2)CCN(c2c(F)cc(N3C[C@H](CO)OC3=O)cc2F)CC1	32
CC(=O)NC[C@H]1CN(c2cc(F)c(N3CC[Si](C)(C)CC3)c(F)c2)C(=O)O1	8

Shift focus to the following entry.
Name the recorded MIC for `COC(=O)NC[C@H]1CN(c2ccc(N3CC[Si](C)(C)CC3)c(F)c2)C(=O)O1` . 16

###

tested on: E.faecium ATCC 35667
parameter measured: MIC (µg/mL)
The figure you give is taken to be in µg/mL; do not add the unit.

Worked cases, MIC given:
compound	test system	quantitative readout
CC(=O)NC[C@H]1CN(c2ccc(N3CC[Si](C)(C)CC3)c(F)c2)C(=O)O1	E.faecium ATCC 35667	8
CCC(=O)NC[C@H]1CN(c2cc(F)c(N3CC[Si](C)(C)CC3)c(F)c2)C(=O)O1	E.faecium ATCC 35667	32
CC(=O)NC[C@H]1CN(c2ccc(N3CCOCC3)c(F)c2)C(=O)O1 [Linezolid, reference compound]	E.faecium ATCC 35667	4

// lookup MIC for `C[Si]1(C)CCN(c2c(F)cc(N3C[C@H](CO)OC3=O)cc2F)CC1` 32

Field request: MIC | item: `C[Si]1(C)CCN(c2ccc(N3C[C@H](CN)OC3=O)cc2F)CC1` 32

For the compound `CC(=O)NC[C@H]1CN(c2cc(F)c(N3CC[Si](C)(C)CC3)c(F)c2)C(=O)O1` , what MIC is on record? 8

Given the entry `COC(=O)NC[C@H]1CN(c2cc(F)c(N3CC[Si](C)(C)CC3)c(F)c2)C(=O)O1` , report its measured MIC. 8

###

system: MRSA 562; test: MIC by microbroth dilution method; type: cell-based, S. aureus
parameter measured: MIC

Some entries whose results are on file:
compound	result
C[Si]1(C)CCN(c2ccc(N3C[C@H](Cn4ccnn4)OC3=O)cc2F)CC1	16 µg/mL
COC(=O)NC[C@H]1CN(c2cc(F)c(N3CC[Si](C)(C)CC3)c(F)c2)C(=O)O1	16 µg/mL
CCC(=O)NC[C@H]1CN(c2cc(F)c(N3CC[Si](C)(C)CC3)c(F)c2)C(=O)O1	8 µg/mL
CC(=O)NC[C@H]1CN(c2ccc(N3CCOCC3)c(F)c2)C(=O)O1 [Linezolid, reference compound]	2 µg/mL
C[Si]1(c2ccccc2)CCN(c2c(F)cc(N3C[C@H](CO)OC3=O)cc2F)CC1	32 µg/mL
CC(=O)NCC1CN(c2ccc(N3CC[Si](C)(C)CC3)c(F)c2)C(=O)O1 (centres unmarked)	16 µg/mL
COC(=S)NC[C@H]1CN(c2ccc(N3CC[Si](C)(C)CC3)c(F)c2)C(=O)O1	4 µg/mL

Next item in the queue.
Entry `CC(C)(C)OC(=O)NC[C@H]1CN(c2cc(F)c(N3CC[Si](C)(C)CC3)c(F)c2)C(=O)O1` , system MRSA 562: what MIC was measured? > 16 µg/mL
